Literature compilation of pIC50 measurements on Poly [ADP-ribose] polymerase tankyrase-1 (Homo sapiens).
- target desc: Poly [ADP-ribose] polymerase tankyrase-1 (Homo sapiens)
- Sequence (O95271 whole entry): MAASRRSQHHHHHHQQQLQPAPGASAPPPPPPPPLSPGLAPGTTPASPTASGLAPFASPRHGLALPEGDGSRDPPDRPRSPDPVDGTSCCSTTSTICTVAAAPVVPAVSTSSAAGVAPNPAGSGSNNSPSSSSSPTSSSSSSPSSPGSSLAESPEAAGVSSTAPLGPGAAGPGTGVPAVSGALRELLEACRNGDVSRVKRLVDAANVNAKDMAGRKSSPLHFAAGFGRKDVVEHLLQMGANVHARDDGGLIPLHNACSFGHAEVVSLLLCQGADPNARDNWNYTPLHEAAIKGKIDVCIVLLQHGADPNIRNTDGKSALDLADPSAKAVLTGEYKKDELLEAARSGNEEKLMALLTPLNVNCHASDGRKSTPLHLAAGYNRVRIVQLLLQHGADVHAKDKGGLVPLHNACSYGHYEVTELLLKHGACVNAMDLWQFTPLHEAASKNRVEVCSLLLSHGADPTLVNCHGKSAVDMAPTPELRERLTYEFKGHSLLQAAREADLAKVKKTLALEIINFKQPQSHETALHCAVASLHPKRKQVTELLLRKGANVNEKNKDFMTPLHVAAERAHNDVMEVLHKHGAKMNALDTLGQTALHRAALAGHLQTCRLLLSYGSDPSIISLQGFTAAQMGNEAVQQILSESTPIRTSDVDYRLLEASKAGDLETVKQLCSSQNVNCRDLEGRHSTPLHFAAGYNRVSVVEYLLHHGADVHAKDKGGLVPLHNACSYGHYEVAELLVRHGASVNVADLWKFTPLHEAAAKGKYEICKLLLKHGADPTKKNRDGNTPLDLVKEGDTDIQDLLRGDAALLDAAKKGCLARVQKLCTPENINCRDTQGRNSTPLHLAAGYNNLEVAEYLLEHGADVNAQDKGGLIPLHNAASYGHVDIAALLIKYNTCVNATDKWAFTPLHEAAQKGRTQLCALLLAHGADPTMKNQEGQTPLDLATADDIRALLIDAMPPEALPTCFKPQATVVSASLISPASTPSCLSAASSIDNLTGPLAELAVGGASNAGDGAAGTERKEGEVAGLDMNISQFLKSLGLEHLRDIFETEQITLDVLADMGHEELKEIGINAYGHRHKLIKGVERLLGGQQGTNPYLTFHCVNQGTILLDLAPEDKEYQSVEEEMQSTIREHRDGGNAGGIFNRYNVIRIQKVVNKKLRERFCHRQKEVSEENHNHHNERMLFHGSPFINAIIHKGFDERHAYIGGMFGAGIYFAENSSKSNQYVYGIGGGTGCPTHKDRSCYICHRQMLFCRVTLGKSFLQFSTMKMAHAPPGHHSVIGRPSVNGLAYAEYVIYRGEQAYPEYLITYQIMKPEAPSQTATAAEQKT
Remember, pIC50 is on a log scale: it is -log10 of the molar concentration.

COc1ccc(N2CCN(c3nc4c(c(=O)[nH]3)CSCC4)CC2)cc1 ... 8.47

Name the reported pIC50 value associated with the compound `Oc1nc(N2CCN(c3ccccc3)CC2)nc2c1CCCC2`
6.87

Name the reported pIC50 value associated with the compound `CN(C)CCOc1cc(F)c2c(c1)N(C)C(=O)C21CCN(c2nc3c(c(=O)[nH]2)CCCN3C)CC1`
8.31

Name the reported pIC50 value associated with the compound `CN1CCCc2c1nc(N1CCC3(CC1)C(=O)N(CCO)c1cc(F)cc(F)c13)[nH]c2=O`
8.12

Name the reported pIC50 value associated with the compound `CN1CCN(CCOc2cc(F)c3c(c2)N(C)C(=O)C32CCN(c3nc4c(c(=O)[nH]3)CCCN4C)CC2)CC1`
8.10

Name the reported pIC50 value associated with the compound `C[C@@H]1CN(c2cc(F)c3c(c2)N(C)C(=O)C32CCN(c3nc4c(c(=O)[nH]3)CCCN4C)CC2)C[C@H](C)O1`
7.44

Name the reported pIC50 value associated with the compound `O=c1[nH]c(N2CCC3(CC2)CNc2cccc(Cl)c23)nc2c1CCCC2`
8.19

Name the reported pIC50 value associated with the compound CC(C)(C)OC(=O)N1CCC2(CCN(C(=O)c3cc(Cc4n[nH]c(=O)c5ccccc45)ccc3F)C2)C1 (centres undefined)
6.00

###

Literature compilation of IC50 measurements on Poly [ADP-ribose] polymerase tankyrase-1 (Homo sapiens).
- target desc: Poly [ADP-ribose] polymerase tankyrase-1 (Homo sapiens)
- Sequence (O95271 whole entry): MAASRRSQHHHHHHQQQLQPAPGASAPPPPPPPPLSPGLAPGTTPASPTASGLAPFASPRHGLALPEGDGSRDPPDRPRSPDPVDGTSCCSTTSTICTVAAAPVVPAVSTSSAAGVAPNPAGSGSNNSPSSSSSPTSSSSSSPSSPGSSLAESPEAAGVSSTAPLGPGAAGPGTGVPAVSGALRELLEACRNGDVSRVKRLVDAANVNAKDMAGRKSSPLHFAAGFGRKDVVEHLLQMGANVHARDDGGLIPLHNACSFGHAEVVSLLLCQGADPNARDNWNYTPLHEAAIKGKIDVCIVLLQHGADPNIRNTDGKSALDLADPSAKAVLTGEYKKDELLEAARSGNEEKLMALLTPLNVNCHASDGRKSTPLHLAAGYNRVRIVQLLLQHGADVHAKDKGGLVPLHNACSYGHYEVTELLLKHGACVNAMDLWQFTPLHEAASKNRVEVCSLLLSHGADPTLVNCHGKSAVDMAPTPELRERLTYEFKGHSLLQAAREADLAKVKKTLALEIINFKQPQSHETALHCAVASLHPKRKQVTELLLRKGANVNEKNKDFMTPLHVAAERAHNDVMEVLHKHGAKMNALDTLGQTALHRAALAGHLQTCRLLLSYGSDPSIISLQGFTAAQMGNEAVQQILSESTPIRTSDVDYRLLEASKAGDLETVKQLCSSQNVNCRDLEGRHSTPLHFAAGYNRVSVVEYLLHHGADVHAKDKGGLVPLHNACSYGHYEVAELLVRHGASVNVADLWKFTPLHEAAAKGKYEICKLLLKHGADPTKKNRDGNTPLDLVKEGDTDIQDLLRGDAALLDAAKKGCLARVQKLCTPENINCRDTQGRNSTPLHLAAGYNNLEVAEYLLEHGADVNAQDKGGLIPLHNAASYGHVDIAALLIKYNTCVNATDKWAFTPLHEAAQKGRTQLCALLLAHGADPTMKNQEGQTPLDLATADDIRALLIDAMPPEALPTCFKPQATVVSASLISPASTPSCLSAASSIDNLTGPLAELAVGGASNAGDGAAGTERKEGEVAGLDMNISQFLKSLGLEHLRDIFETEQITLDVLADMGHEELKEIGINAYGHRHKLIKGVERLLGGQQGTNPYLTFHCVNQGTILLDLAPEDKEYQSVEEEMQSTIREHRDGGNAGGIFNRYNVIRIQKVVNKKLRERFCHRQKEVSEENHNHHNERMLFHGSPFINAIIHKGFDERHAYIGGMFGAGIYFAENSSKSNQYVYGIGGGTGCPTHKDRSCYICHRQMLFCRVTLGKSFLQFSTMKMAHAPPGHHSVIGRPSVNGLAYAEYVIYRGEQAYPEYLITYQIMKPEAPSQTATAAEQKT
// return numeric value only (unit: nM, not printed)

Please provide the recorded IC50 for `CN1CCCc2c1cc(-c1ccc(Br)cc1)[nH]c2=O` , tested on Poly [ADP-ribose] polymerase tankyrase-1 (Homo sapiens).
6.1

Please provide the recorded IC50 for `CN1CCCc2c1nc(N1CCC3(CC1)CN(CCO)c1cc(F)cc(F)c13)[nH]c2=O` , tested on Poly [ADP-ribose] polymerase tankyrase-1 (Homo sapiens).
13.6

Please provide the recorded IC50 for `N#Cc1ccccc1Cn1c(=O)n(C[C@H]2CC[C@H](C(=O)Nc3ccncc3)CC2)c(=O)c2ccncc21` , tested on Poly [ADP-ribose] polymerase tankyrase-1 (Homo sapiens).
63.1

Please provide the recorded IC50 for `O=c1[nH]c(N2CCC3(CC2)CNc2cccc(Br)c23)nc2c1CCCC2` , tested on Poly [ADP-ribose] polymerase tankyrase-1 (Homo sapiens).
16

Please provide the recorded IC50 for `O=C(CCc1c(Cl)cccc1Cl)Nc1nnc2n1CCS2` , tested on Poly [ADP-ribose] polymerase tankyrase-1 (Homo sapiens).
12

Please provide the recorded IC50 for `O=C1Nc2cc(F)cc(F)c2C12CCN(c1nc3c(c(=O)[nH]1)CCCC3)CC2` , tested on Poly [ADP-ribose] polymerase tankyrase-1 (Homo sapiens).
6.4

Please provide the recorded IC50 for `O=C1N(CCO)c2cc(F)cc(F)c2C12CCN(c1nc3c(c(=O)[nH]1)CCCC3)CC2` , tested on Poly [ADP-ribose] polymerase tankyrase-1 (Homo sapiens).
10

Please provide the recorded IC50 for `O=c1[nH]c(N2CCC3(CC2)CNc2cc(Cl)ccc23)nc2c1CCCC2` , tested on Poly [ADP-ribose] polymerase tankyrase-1 (Homo sapiens).
8.4

Please provide the recorded IC50 for `O=C1N(CCO)c2cc(Cl)cc(Cl)c2C12CCN(c1nc3c(c(=O)[nH]1)CCCC3)CC2` , tested on Poly [ADP-ribose] polymerase tankyrase-1 (Homo sapiens).
9

Please provide the recorded IC50 for CN1CCCc2c1nc(N1CCC3(CC1)C(=O)N(CC(O)CO)c1cc(F)cc(F)c13)[nH]c2=O (stereo not given) , tested on Poly [ADP-ribose] polymerase tankyrase-1 (Homo sapiens).
8.9
